test: Pharmacokinetic study, single IV bolus in adult male Sprague Dawley rats; format: in vivo; details: male, Sprague Dawley, rat, plasma, iv, 2 mg/kg
ENDPOINT: AUC(0-inf)

AUC(0-inf) recorded for this compound, Oc1c(Br)cc(Cl)c2cccnc12 , is 1360 ng·h/mL
